Sourced from paper PMC11017246

- testName: Hepatocyte stability, rat
- Assay type: in vitro ADME
- appliedConditions: pooled cryopreserved hepatocytes in suspension, read-out: Hep CLint,u rat (converted)
recordedEndpoint: CLint scaled at 1 μM (mL/min/kg)
Give just the numeric value; mL/min/kg need not be written.

Name the reported CLint scaled at 1 μM value associated with the compound CN(C)S(=O)(=O)NC(=O)c1cc(N2CCC(N3CCOCC3)CC2)c2c(C3CCC3)nn(-c3ccc(F)cc3)c2n1 [Compound 51] 49

====

- testName: PK dog
- Assay type: in vivo
- appliedConditions: male, beagle, plasma, 1 mg/kg, iv, read-out: t1/2 iv dog (converted)
recordedEndpoint: half-life
Form entry: enter the amount, then its unit.

Quick check: half-life of COC1CCN(C2CCN(c3cc(C(=O)NS(=O)(=O)N(C)C)nc4c3c(C3CCC3)nn4-c3ccc(F)cc3)CC2)CC1 [Compound 52] ? 5.4 h

Report half-life for CS(=O)(=O)NC(=O)c1cc(N2CCC(N3CCOCC3)CC2)c2c(C3CCC3)nn(-c3ccccc3)c2n1 [Compound 49] please. 6.6 h

====

- measuredOn: ΔF508 CFTR (Homo sapiens, UniProt P13569, DEL508-508)
- Construct: host or cells: CFBE41o- TetON cells, expression induced with doxycycline
- Sequence (P13569 with tags, fused parts or gaps DEL508-508): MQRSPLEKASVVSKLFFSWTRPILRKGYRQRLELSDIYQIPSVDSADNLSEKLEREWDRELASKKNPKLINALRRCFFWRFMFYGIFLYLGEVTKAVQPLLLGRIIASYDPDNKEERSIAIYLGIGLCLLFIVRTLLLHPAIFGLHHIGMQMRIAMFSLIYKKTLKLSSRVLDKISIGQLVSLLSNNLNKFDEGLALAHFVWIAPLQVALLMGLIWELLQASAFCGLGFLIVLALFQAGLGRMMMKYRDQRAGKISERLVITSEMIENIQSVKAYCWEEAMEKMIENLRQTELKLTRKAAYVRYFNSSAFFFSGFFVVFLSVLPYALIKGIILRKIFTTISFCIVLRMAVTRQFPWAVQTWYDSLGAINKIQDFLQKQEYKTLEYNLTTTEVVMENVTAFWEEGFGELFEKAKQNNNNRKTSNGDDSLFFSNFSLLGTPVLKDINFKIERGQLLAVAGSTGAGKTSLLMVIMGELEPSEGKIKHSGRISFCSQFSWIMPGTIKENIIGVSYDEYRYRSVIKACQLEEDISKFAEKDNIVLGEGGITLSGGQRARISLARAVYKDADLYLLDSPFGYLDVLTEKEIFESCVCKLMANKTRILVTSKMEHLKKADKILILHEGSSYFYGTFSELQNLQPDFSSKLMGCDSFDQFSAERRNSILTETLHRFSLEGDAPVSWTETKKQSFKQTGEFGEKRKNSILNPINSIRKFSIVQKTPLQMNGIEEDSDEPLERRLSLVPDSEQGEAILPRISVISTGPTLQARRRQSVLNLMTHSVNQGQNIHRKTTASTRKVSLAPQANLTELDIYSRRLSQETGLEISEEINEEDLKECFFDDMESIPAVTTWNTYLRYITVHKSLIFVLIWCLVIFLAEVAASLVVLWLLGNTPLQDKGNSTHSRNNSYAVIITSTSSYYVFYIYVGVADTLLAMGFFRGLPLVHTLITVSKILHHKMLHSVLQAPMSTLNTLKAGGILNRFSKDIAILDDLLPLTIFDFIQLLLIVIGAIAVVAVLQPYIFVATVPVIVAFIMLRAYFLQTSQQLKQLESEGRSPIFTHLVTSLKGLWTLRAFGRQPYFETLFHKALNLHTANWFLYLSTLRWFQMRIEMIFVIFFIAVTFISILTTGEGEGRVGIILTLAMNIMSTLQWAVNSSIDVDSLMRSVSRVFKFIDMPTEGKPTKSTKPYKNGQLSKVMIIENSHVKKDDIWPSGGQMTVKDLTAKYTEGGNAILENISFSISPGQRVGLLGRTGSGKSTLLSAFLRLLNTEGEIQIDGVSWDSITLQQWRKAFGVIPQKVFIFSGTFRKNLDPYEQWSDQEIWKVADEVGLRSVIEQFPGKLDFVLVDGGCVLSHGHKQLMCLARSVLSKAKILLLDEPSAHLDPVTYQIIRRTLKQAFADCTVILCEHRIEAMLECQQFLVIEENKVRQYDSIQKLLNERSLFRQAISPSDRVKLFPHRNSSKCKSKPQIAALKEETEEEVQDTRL
- testName: TECC (transepithelial clamp circuit) in primary CF-derived HBE cells
- Assay type: cell-based
- appliedConditions: primary ΔF508 homozygous HBE cells, 24 h incubation, with GLPG2222; read-out: TECC HBE with GLPG2222 EC50
Would you kindly list pEC50 for each of these molecules?
The value called pEC50 is obtained by taking minus log10 of the concentration in mol/L.

Would you mind telling me what pEC50 value was observed for `CS(=O)(=O)NC(=O)c1cc(N2CCC(N3CCOCC3)CC2)c2c(C3CCC3)nn(-c3ccccc3)c2n1` ? 7.41

Could you share which pEC50 value was measured for `CN(C)S(=O)(=O)NC(=O)c1cc(N2CCC(N3CCOCC3)CC2)c2c(C3CCC3)nn(-c3ccc(F)cc3)c2n1` ? 7.17

Would you kindly share the measured pEC50 for `COC1CCN(C2CCN(c3cc(C(=O)NS(=O)(=O)N(C)C)nc4c3c(C3CCC3)nn4-c3ccc(F)cc3)CC2)CC1` ? 7.33

====

- testName: MDCK-MDR1 permeability assay
- Assay type: in vitro ADME, canine
- appliedConditions: dog, MDCK-MDR1, pH 7.4; A to B, n = 2; read-out: MDCK-MDR1 PA2B
recordedEndpoint: Papp A→B at 1 h, 10 μM (×10⁻⁶ cm/s)
Answer with a number only, understood to be in ×10⁻⁶ cm/s.

// query Papp A→B at 1 h, 10 μM value for entry `COC1CCN(C2CCN(c3cc(C(=O)NS(=O)(=O)N(C)C)nc4c3c(C3CCC3)nn4-c3ccc(F)cc3)CC2)CC1` 5.45

====

- measuredOn: CYP2C9 (Homo sapiens)
- Construct: tissue BD Gentest; host or cells: human liver microsomes
- Sequence (P11712 whole entry): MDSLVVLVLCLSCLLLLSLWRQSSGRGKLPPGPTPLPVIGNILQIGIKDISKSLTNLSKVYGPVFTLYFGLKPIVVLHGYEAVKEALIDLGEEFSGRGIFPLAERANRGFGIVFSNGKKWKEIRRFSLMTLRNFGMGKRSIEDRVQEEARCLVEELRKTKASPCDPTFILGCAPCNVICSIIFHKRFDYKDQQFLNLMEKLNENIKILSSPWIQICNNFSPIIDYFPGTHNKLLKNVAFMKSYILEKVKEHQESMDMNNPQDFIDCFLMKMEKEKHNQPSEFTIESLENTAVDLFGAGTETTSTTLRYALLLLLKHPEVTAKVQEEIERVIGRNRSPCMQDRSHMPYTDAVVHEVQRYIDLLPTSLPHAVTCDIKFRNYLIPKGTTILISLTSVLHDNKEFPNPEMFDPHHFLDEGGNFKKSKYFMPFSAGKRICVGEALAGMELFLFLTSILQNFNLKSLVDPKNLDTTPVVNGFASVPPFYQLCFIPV
- testName: CYP reversible inhibition in HLM, CYP2C9
- Assay type: in vitro ADME
- appliedConditions: probe diclofenac; read-out: CYP inhibition in HLM IC50, CYP2C9
recordedEndpoint: IC50 (µM)
# number only, unit µM dropped from output

Enter reported IC50 observed with CYP2C9 (Homo sapiens) for COC1CCN(C2CCN(c3cc(C(=O)NS(=O)(=O)N(C)C)nc4c3c(C3CCC3)nn4-c3ccc(F)cc3)CC2)CC1 [Compound 52] 1.4

====

- measuredOn: (h)Sigma
- testName: Radioligand binding, (h)Sigma (Eurofins panel)
- appliedConditions: read-out: IC50, inhibition of radioligand binding to (h)Sigma
recordedEndpoint: pIC50
The read-out pIC50 is expressed as -log10 of concentration in moles per litre.

Suppose we examine the compound `COC1CCN(C2CCN(c3cc(C(=O)NS(=O)(=O)N(C)C)nc4c3c(C3CCC3)nn4-c3ccc(F)cc3)CC2)CC1` ; what pIC50 value has been reported? 6.44

====

- testName: Liver microsomal stability, rat
- Type: in vitro ADME
- appliedConditions: rat; matrix not given; read-out: Clintr,unbound rat (converted)
recordedEndpoint: CLint scaled at 1 μM (mL/min/kg)
Report the figure in mL/min/kg without appending any unit label.

Fill in: CLint scaled at 1 μM of `COC1CCN(C2CCN(c3cc(C(=O)NS(=O)(=O)N(C)C)nc4c3c(C3CCC3)nn4-c3ccc(F)cc3)CC2)CC1` is ___ 82.3

====

- testName: PK dog
- Assay type: in vivo
- appliedConditions: male, beagle, plasma, 1 mg/kg, iv, read-out: Vss dog
Hi there, I'd appreciate the recorded Vd for every entry that follows.
API: value field is a number in L/kg; no unit string.

Which Vd value is on record for `CN(C)S(=O)(=O)NC(=O)c1cc(N2CCC(N3CCOCC3)CC2)c2c(C3CCC3)nn(-c3ccc(F)cc3)c2n1` ? 0.9

Requested field: Vd. Item: `CS(=O)(=O)NC(=O)c1cc(N2CCC(N3CCOCC3)CC2)c2c(C3CCC3)nn(-c3ccccc3)c2n1` 0.2

Would you mind telling me what Vd value was observed for `COC1CCN(C2CCN(c3cc(C(=O)NS(=O)(=O)N(C)C)nc4c3c(C3CCC3)nn4-c3ccc(F)cc3)CC2)CC1` ? 1.37

====

- testName: PK mouse
- Assay type: in vivo
- appliedConditions: plasma, 1 mg/kg iv, read-out: t1/2 iv mouse (converted)
recordedEndpoint: half-life (h)
Give your result in h as a bare value.

Record request: half-life value, item `COC1CCN(C2CCN(c3cc(C(=O)NS(=O)(=O)N(C)C)nc4c3c(C3CCC3)nn4-c3ccc(F)cc3)CC2)CC1` 3.22

====

recordedEndpoint: IC50

Request: IC50, test system CYP2D6 (Homo sapiens), entry `COC1CCN(C2CCN(c3cc(C(=O)NS(=O)(=O)N(C)C)nc4c3c(C3CCC3)nn4-c3ccc(F)cc3)CC2)CC1` > 100 µM

====

- testName: Liver microsomal stability, dog
- Assay type: in vitro ADME
- appliedConditions: matrix not given, read-out: Clintr,unbound dog
recordedEndpoint: CLint scaled at 1 μM

Given the entry `COC1CCN(C2CCN(c3cc(C(=O)NS(=O)(=O)N(C)C)nc4c3c(C3CCC3)nn4-c3ccc(F)cc3)CC2)CC1` , report its measured CLint scaled at 1 μM. < 32 mL/min/kg

====

- testName: Hepatocyte stability, dog
- Type: in vitro ADME
- appliedConditions: dog, pooled cryopreserved dog hepatocytes in suspension; read-out: Hep CLint,u dog (converted)
recordedEndpoint: CLint scaled at 1 μM

What does the data say about its CLint scaled at 1 μM? Entry: `COC1CCN(C2CCN(c3cc(C(=O)NS(=O)(=O)N(C)C)nc4c3c(C3CCC3)nn4-c3ccc(F)cc3)CC2)CC1` < 24.8 mL/min/kg

====

- testName: Liver microsomal stability, human
- Assay type: in vitro ADME
- appliedConditions: human; matrix not given; read-out: Clintr,unbound human (converted)
recordedEndpoint: CLint scaled at 1 μM (mL/min/kg)
Number only, in mL/min/kg; omit the unit.

# get_value(readout='CLint scaled at 1 μM', item= `COC1CCN(C2CCN(c3cc(C(=O)NS(=O)(=O)N(C)C)nc4c3c(C3CCC3)nn4-c3ccc(F)cc3)CC2)CC1` ) 66.7

====

- Test system: CYP3A4
- testName: CYP reversible inhibition in HLM, CYP3A4
- Assay type: in vitro ADME
- appliedConditions: human, human liver microsomes, pH 7.4, probe midazolam
pIC50: −log10 of the molar value.
recordedEndpoint: pIC50

So what does the record say about pIC50 for `COC1CCN(C2CCN(c3cc(C(=O)NS(=O)(=O)N(C)C)nc4c3c(C3CCC3)nn4-c3ccc(F)cc3)CC2)CC1` ? < 4.00

====

- testName: Measured pKa (potentiometric and UV methods)
- Type: physicochemical
- appliedConditions: potentiometric method; measured at Charles River; read-out: measured piperidine pKa
recordedEndpoint: pKa
Could you keep your reply to the number by itself?

Record request: pKa value, item `COC1CCN(C2CCN(c3cc(C(=O)NS(=O)(=O)N(C)C)nc4c3c(C3CCC3)nn4-c3ccc(F)cc3)CC2)CC1` 8.42

====

- testName: PK dog
- Assay type: in vivo
- appliedConditions: male, beagle, plasma, 0.1 mg/kg, iv, read-out: t1/2 iv dog (converted)
recordedEndpoint: half-life at 24 h (h)
Answer in h, number only, no unit symbol.

half-life at 24 h lookup needed for `CN(C)S(=O)(=O)NC(=O)c1cc(N2CCC(N3CCOCC3)CC2)c2c(C3CCC3)nn(-c3ccc(F)cc3)c2n1` , thanks. 4.9

====

- testName: Measured pKa (potentiometric and UV methods)
- Assay type: physicochemical
- appliedConditions: potentiometric method; measured at Charles River; read-out: measured acylsulfonamyl pKa
recordedEndpoint: pKa

Request the reported pKa associated with COC1CCN(C2CCN(c3cc(C(=O)NS(=O)(=O)N(C)C)nc4c3c(C3CCC3)nn4-c3ccc(F)cc3)CC2)CC1 [Compound 52] 4.96
